- System: LXRa homodimer (NR concentration 270 nM)
- experiment_notes: PBM binding z-score (relative to random genomic background probes); higher = stronger binding; sequences stand for … in GC…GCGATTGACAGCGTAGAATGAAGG
readout: PBM binding z-score
Please reply with the value in numeric form only.

Recorded results for 10 sequences are shown here.
{"sequence_code": "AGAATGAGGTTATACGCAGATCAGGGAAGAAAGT", "readout": "PBM binding z-score", "val": -0.247}
{"sequence_code": "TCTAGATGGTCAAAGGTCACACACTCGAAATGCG", "readout": "PBM binding z-score", "val": 4.06}
{"sequence_code": "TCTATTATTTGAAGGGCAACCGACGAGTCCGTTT", "readout": "PBM binding z-score", "val": 1.32}
{"sequence_code": "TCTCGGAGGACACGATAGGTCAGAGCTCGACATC", "readout": "PBM binding z-score", "val": 0.208}
{"sequence_code": "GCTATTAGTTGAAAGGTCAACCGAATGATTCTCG", "readout": "PBM binding z-score", "val": 4.71}
{"sequence_code": "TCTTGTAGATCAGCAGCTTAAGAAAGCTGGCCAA", "readout": "PBM binding z-score", "val": -0.557}
{"sequence_code": "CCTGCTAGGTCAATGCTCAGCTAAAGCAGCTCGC", "readout": "PBM binding z-score", "val": -0.307}
{"sequence_code": "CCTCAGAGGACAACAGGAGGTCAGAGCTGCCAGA", "readout": "PBM binding z-score", "val": 2.4}
{"sequence_code": "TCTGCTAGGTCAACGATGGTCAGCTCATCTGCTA", "readout": "PBM binding z-score", "val": 0.0556}
{"sequence_code": "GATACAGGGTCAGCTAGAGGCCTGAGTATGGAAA", "readout": "PBM binding z-score", "val": -0.546}

Field: next sequence
Any idea what PBM binding z-score was measured for "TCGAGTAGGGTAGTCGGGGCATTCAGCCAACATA" ?
-0.232

###

- Test system: PPARg:RXRa DBDmut IVT, anti-RXR (DBD mutation: RXRa K156A/R161A, NR concentration 270 nM, RXRa partner concentration 90 nM)
- experiment_notes: PBM binding z-score (relative to random genomic background probes); higher = stronger binding; sequences stand for … in GC…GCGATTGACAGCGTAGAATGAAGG
Would you mind labelling by PBM binding z-score? At or over 0.5 is rule met, under is rule not met.

Use the examples below as a reference point.
{"sequence_code": "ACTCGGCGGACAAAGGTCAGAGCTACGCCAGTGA", "label_class": "rule not met"}
{"sequence_code": "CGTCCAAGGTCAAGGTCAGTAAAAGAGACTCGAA", "label_class": "rule met"}
{"sequence_code": "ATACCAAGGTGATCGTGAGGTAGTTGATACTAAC", "label_class": "rule not met"}
{"sequence_code": "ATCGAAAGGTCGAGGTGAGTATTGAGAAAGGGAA", "label_class": "rule met"}
{"sequence_code": "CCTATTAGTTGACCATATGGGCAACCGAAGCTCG", "label_class": "rule not met"}
{"sequence_code": "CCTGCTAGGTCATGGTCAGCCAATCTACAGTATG", "label_class": "rule met"}
{"sequence_code": "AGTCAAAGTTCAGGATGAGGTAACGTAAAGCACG", "label_class": "rule not met"}
{"sequence_code": "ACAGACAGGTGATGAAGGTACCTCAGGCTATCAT", "label_class": "rule not met"}

Please tell me: is the sequence "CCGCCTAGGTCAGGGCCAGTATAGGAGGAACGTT" at or over 0.5 in terms of PBM binding z-score?
rule met

Please tell me: is the sequence "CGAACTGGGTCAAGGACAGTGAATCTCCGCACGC" at or over 0.5 in terms of PBM binding z-score?
rule met

Please tell me: is the sequence "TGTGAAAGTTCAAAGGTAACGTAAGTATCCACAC" at or over 0.5 in terms of PBM binding z-score?
rule not met

Please tell me: is the sequence "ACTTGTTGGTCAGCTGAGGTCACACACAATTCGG" at or over 0.5 in terms of PBM binding z-score?
rule met

Please tell me: is the sequence "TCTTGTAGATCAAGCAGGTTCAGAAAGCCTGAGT" at or over 0.5 in terms of PBM binding z-score?
rule met

Please tell me: is the sequence "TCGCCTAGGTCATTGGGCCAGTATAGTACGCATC" at or over 0.5 in terms of PBM binding z-score?
rule met
